molecular target: UniProt P08684; experiment: Direct inhibition of CYP3A4 in human hepatocytes; assay type: ADME, cell-based, Hepatocyte
Sequence (P08684 whole entry): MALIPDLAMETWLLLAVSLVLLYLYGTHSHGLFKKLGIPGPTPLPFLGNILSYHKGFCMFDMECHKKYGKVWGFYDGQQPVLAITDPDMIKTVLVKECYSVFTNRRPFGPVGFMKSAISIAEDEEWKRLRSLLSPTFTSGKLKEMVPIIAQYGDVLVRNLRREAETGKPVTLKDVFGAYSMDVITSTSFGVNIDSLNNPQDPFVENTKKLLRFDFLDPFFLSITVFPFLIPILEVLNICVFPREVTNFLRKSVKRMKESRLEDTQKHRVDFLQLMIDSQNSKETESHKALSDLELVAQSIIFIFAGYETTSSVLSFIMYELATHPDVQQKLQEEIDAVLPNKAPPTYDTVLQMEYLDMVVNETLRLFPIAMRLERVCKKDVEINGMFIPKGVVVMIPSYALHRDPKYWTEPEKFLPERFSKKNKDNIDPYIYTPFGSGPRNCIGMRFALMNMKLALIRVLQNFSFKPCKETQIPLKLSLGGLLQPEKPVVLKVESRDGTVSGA
metric: pIC50
Give only the number. pIC50 is defined as minus log10 of concentration in molar units.

Incoming: Form field: pIC50 recorded for CCOC(=O)[C@@H](Cc1cn(C)c2ccccc12)NC(=O)[C@@H](N)CC(C)C.Cl with UniProt P08684 (enter value)
Outgoing: 5.30

###

Would you kindly list Cmax/dose for each of these compounds?
assay: Dose normalized Cmax in rat at 10 mg/kg, po measured upto 72 hrs by LC-MS/MS analysis; assay type: ADME, organism-based; details: in vivo
Form entry: value (µM) — number only.

Incoming: Form field: reported Cmax/dose of Cl.Cn1cc(C[C@@H](NC(=O)[C@@H](N)CCC(N)=O)C(=O)O)c2ccccc21
Outgoing: 8.5

Incoming: Look at this compound and give its reported Cmax/dose. CC[C@H](C)[C@H](N)C(=O)N[C@H](Cc1cn(C)c2ccccc12)C(=O)O.Cl
Outgoing: 12.5

Incoming: Using the record for Cl.Cn1cc(C[C@@H](N)C(=O)N[C@H](Cc2cn(C)c3ccccc23)C(=O)O)c2ccccc21 , report its Cmax/dose.
Outgoing: 3

Incoming: Return reported Cmax/dose; argument: Cl.Cn1cc(C[C@@H](N)C(=O)OCC2CCNCC2)c2ccccc21
Outgoing: 21.5

Incoming: Look up Cmax/dose: Cl.Cn1cc(C[C@@H](N)C(=O)OCCC2CCOCC2)c2ccccc21
Outgoing: 15

Incoming: # Cmax/dose lookup, item Cl.Cn1cc(C[C@@H](NC(=O)[C@@H](N)CCC(=O)O)C(=O)O)c2ccccc21
Outgoing: 17.6
